- TESTED ON: HIV-1 Env of isolate ZM233 (HIV-1)
- EXPERIMENTAL DETAILS: cell-based or functional assay
PARAMETER MEASURED: IC50, pseudovirus neutralization (TZM-bl)

Can you share its IC50, pseudovirus neutralization (TZM-bl)? I mean this binder: 1503_H05 (PG16) (TCN-119) (antibody, V domains shown) VH: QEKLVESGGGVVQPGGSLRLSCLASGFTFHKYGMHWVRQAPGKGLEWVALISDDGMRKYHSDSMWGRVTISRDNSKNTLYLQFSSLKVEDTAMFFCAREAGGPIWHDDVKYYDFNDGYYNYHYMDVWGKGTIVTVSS VL: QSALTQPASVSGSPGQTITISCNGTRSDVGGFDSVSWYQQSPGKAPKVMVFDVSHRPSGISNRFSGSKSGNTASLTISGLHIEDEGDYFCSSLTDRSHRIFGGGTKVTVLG < 0.01 µg/mL
